Test Details: Pharmacokinetics of TXA in swine plasma after IV and IM administration
Format: in vivo, domestic pigs
Setup Conditions: pig, plasma, im, 1 g, swine Group 3: 1 g TXA IM, n=5; read-out: AUCINF_pred range
Measured Property: AUC(0-inf)

1. NC[C@H]1CC[C@H](C(=O)O)CC1 ... 81500 to 90300 ng·h/mL

----------
Test Details: Pharmacokinetics of TXA in swine plasma after IV and IM administration
Type: in vivo, domestic pigs
Setup Conditions: pig, plasma, im, 2 g; read-out: Cmax range
Measured Property: Cmax

1) NC[C@H]1CC[C@H](C(=O)O)CC1 ... 35700 to 47000 ng/mL
